# System: zebrafish embryos
# Experiment description: Zebrafish embryo acute toxicity assay (CNLS-NCs)
# Assay type: in vivo, zebrafish (AB strain)
# Experimental parameters: exposure 24-72 hpf
Test readout: LC50 (nM)
Answer in nM, number only, no unit symbol.

The compound CCN(CC)c1ccc(C=O)cc1 , when measured on zebrafish embryos, yielded LC50 of 2500

====

# Tested on: zebrafish embryos
# Experiment description: Zebrafish embryo acute toxicity assay (CZNCs)
# Type: in vivo, zebrafish (Danio rerio), AB strain
# Experimental parameters: sigmoidal curve, 95% confidence limit
Test readout: LC50 (nM)
Answer in nM, number only, no unit symbol.

The compound CCN(CC)c1ccc(C=O)cc1 , when measured on zebrafish embryos, yielded LC50 of 940
